// %Inh lookup, one value per entry
# Tested on: MYLK
# run-parameters: concentration: 1 μM, replicates: in singlicate; n = 1;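 also: KINOMEscan kinase panel screen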
Your reply should be a number followed by the unit it is expressed in.

{"molecule": "O=C(Nc1ccc2c(c1)OCO2)NC1CCN(c2ccnc(Nc3ccc(F)cc3)n2)C1 (centres unmarked) [GSK1379724]", "measurement-target": "MYLK", "result": "0%"}

Challenge: Any idea what %Inh came out for Cl.NC(=O)c1cccc(Nc2nccc(Nc3ccc(Oc4cccc(Cl)c4)c(Cl)c3)n2)c1 [GW659008] on MYLK?
Response given: 3%

Challenge: Any idea what %Inh came out for Cl.c1ccc(-c2n[nH]cc2-c2ccnc(-c3ccc(CN4CCOCC4)cc3)c2)nc1 [GW776245] on MYLK?
Response given: 2%

Challenge: Any idea what %Inh came out for `NC(=O)c1nnc2ccccc2c1N` on MYLK?
Response given: 37%

Challenge: Any idea what %Inh came out for Cc1cccc(-c2cc(Nc3ccncc3)c3ccccc3n2)n1 [GSK223675] on MYLK?
Response given: 15%

---

// %Inh lookup, one value per entry
# Tested on: TRKB
# run-parameters: concentration: 1 μM, replicates: in singlicate; n = 1
The answer is to be given in %; state only the numeric part.

Examples with their reported %Inh follow.
{"compound": "COc1ccc2nc(-c3cccc(C)n3)nc(Nc3ccncc3)c2c1", "unit-string": "%", "%Inh": 0}
{"compound": "COc1cc2ncn(-c3cc(OCC4CCCO4)c(C(N)=O)s3)c2cc1OC (stereo not shown)", "unit-string": "%", "%Inh": 0}
{"compound": "COc1ccccc1CNC(=O)c1cc(C(=O)c2ccccc2C)c[nH]1", "unit-string": "%", "%Inh": 24}

Now for another entry.
Challenge: Give its %Inh value. Item: `Cn1ccc2ncnc(Oc3ccc(Nc4nc5ccccc5[nH]4)cc3)c21`
Response given: 0

---

# Tested on: MLK2
# run-parameters: concentration: 1 μM, replicates: in singlicate; n = 1
// %Inh lookup, one value per entry

Examples with their reported %Inh follow.
{"compound": "Cl.O=C(Nc1cccc(-c2nn3ncccc3c2-c2ccnc(Nc3cccnc3)n2)c1)c1c(F)cccc1F [GSK312879]", "measurement-target": "MLK2", "result": "31%"}
{"compound": "Cc1csc(-c2nc(Nc3ccncc3)c3ccccc3n2)n1 [GW869640]", "measurement-target": "MLK2", "result": "60%"}
{"compound": "COc1cc2ncnc(Nc3ccc4nc(-c5ccccc5)[nH]c4c3)c2cc1OC.Cl [GW282450]", "measurement-target": "MLK2", "result": "0%"}

Now for another entry.
Challenge: Give its %Inh value. Item: Fc1cc(Cl)ccc1Nc1ccnc2cc(-c3ccc(CN4CCCCC4)o3)ccc12 [GW560116]
Response given: 0%

---

# System: ACVRL1
# run-parameters: concentration: 1 μM, replicates: in singlicate; n = 1
parameter-measured: %Inh (%)
The answer is to be given in %; state only the numeric part.

Examples with their reported %Inh follow.
{"compound": "Cn1ccc2ncnc(Oc3ccc(Nc4nc5ccccc5[nH]4)cc3)c21", "unit-string": "%", "quantitative-readout": 0}
{"compound": "Cc1c(O)cccc1Nc1ccnc2ccc(C(F)(F)F)cc12.Cl [GW466413]", "unit-string": "%", "quantitative-readout": 43}
{"compound": "O=C(Nc1ccc2c(c1)OCO2)NC1CCN(c2ccnc(Nc3ccc(F)cc3)n2)C1 (centres unmarked) [GSK1379724]", "unit-string": "%", "quantitative-readout": 0}

Challenge: Give its %Inh value. Item: `O=C(O)COc1ncnc2cc(-c3ccc4[nH]ncc4c3)sc12`
Response given: 6
